- measurement_notes: Oral bioavailability in Sprague-Dawley rat
- Format: ADME, organism-based
- experimental_setup: in vivo
measured_endpoint: bioavailability (%)
Answers are plain numbers, in %.

Use the examples below as a reference point.
CN(C)[C@@H]1CCc2cc(N3CC[C@H](NS(=O)(=O)c4ccc5cc(Cl)ccc5c4)C3=O)ccc21 : 27
O=C1[C@@H](NS(=O)(=O)c2ccc3cc(Cl)ccc3c2)CCN1c1ccc([C@H]2CCCN2)cc1F : 25
CNC1CCc2cc(N3CC[C@H](NS(=O)(=O)c4ccc5cc(Cl)ccc5c4)C3=O)ccc21 (mixture of isomers) : 25
CN(C)[C@H]1CCc2cc(N3CC[C@H](NS(=O)(=O)c4ccc5cc(Cl)ccc5c4)C3=O)ccc21 : 61
O=C1[C@@H](NS(=O)(=O)c2ccc3cc(Cl)ccc3c2)CCN1c1ccc(C2CCCN2)cc1F (mixture of isomers) : 24

Continue with the compound presented below.
Form field bioavailability, entry O=C1[C@@H](NS(=O)(=O)/C=C/c2ccc(Cl)s2)CCN1c1ccc(C2CCCN2)cc1F (mixture of isomers) : 52
